Measured growth inhibition accompanies every entry in the list below.
Assay: NCI Yeast Anticancer Drug Screen. Data for the bub3 strain (AID 167)
Study conditions: S. cerevisiae bub3 mutant strain, at 50.0 µM, active compounds read high
The panel holds about 79,000 compounds, 15% with a hit somewhere; the sample as a whole holds those more often.
Hi! Could you send only the number? It should be in %, unit omitted.

Examples from the recorded data:
>  <Compound>
CCc1ccc(/C(C#N)=C/c2cccc3ccccc23)cc1

>  <Readout units>
%

>  <growth inhibition>
4.05

$$$$
>  <Compound>
CC(=O)Nc1ccc(/C=C/C(=O)c2sc(-c3cccnc3)nc2C)cc1

>  <Readout units>
%

>  <growth inhibition>
17.5

$$$$
>  <Compound>
CCOc1ccc(OCC)c(N)c1

>  <Readout units>
%

>  <growth inhibition>
10.2

$$$$
>  <Compound>
Cc1cc(NC(=O)CCc2ccc(N3C(N)=NC(N)=NC3(C)C)cc2)ccc1S(=O)(=O)O

>  <Readout units>
%

>  <growth inhibition>
2.05

$$$$
>  <Compound>
CCOC(=O)c1ccc(NC(=O)CCCCl)cc1

>  <Readout units>
%

>  <growth inhibition>
12.7

$$$$
>  <Compound>
O=C(Cl)c1cc(-c2ccccc2)nc2c(Cl)cccc12

>  <Readout units>
%

>  <growth inhibition>
40.5

$$$$
>  <Compound>
COc1ccc2cc(CC(=O)c3ccccc3)ccc2c1

>  <Readout units>
%

>  <growth inhibition>
-17.1

$$$$
>  <Compound>
CCN(CC)C(=O)c1ccc(C(C)C)cc1

>  <Readout units>
%

>  <growth inhibition>
18.3

$$$$
>  <Compound>
COc1cc(C2SCC(=O)N2c2ccc(-n3c(-c4ccccc4)nc4ccccc4c3=O)cc2)cc(OC)c1OC (stereo not given)

>  <Readout units>
%

>  <growth inhibition>
8.05

$$$$
>  <Compound>
CCCCCCCCCCCC(=O)OC(COC(N)=O)COc1ccc(Cl)cc1 (stereo not given)

>  <Readout units>
%

>  <growth inhibition>
-10.2

$$$$

Task: Consider the compound shown here: Cc1cn(C2CC(O)C(CO)O2)c(=O)nc1NC1CC1 (stereo not given) What is its recorded growth inhibition?
Output: 0.6

Task: Quick one: O=C(Oc1ccn(C2OC(CO)C(O)C2O)c(=O)c1)C12CC3CC(CC(C3)C1)C2 (stereo not given)
Output: 0.95

Task: Quick one: C1CCN(c2nsc(N3CCCCC3)n2)CC1
Output: -14.6

Task: Quick one: O=CC(=O)c1ccc(Cl)cc1
Output: -9.5

Task: Quick one: CCCN1COC(OCCN(CC)CC)C(C)(C)C1 (stereo not given)
Output: 7.2

Task: Quick one: NC(=S)SCCC(=O)N1CCCC1
Output: -7.35
